# Experimental target: T1, secretory phospholipase A2 (sPLA2) (Homo sapiens, UniProt P14555 P14555:21-144)
# T1 sequence: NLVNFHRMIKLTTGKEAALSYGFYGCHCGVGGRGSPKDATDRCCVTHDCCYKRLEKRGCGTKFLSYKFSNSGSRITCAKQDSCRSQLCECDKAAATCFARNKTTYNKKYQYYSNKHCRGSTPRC
# Protocol text: filter; biphasic, Kd2 1830 nM, mole fraction 0.50; TBSC, 37 C
# Condition set: tags: supplied by Eli Lilly
Measured attribute: Kd (nM)
Numeric answer only, unit nM assumed.

// Kd lookup, key: 6t (ssRNA) RNA: GGGAGCUCAGAAUAAACGCUCAAUGCCUCAUGCCAAUGUGGGAGGGUGGGUGGUUCGACAUGAGGCCCGGAUCCGGC
28

The origin of these recorded values is patent US5622828.
